tested on: 377384-186-R-J1-PDC complex spheroid viability; experiment: Anticancer human tumor 377384-186-R-J1-PDC patient-derived pancreatic carcinoma cell line growth inhibition [CLK]; settings: second compound 3.16 µM; first compound 0.316 µM; active compounds read low;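 note: luminescence signal used as a stand-in for viable cells; spheroids exposed to agents for 7 days before reading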
measured-parameter: viability, T/C (%)
The answer is to be given in %; state only the numeric part.

Kindly note the recorded viability, T/C for CCc1c2c(nc3ccc(O)cc13)-c1cc3c(c(=O)n1C2)COC(=O)[C@]3(O)CC + CN1CCN(c2cc(C(=O)Nc3cc4cc(-c5cnn(C)c5)ccc4cn3)ccn2)CC1 , which is 0.38

Kindly note the recorded viability, T/C for O=C(c1cc(Cc2n[nH]c(=O)c3ccccc23)ccc1F)N1CCN(C(=O)C2CC2)CC1 + CNC(=O)c1ccc(Nc2nc(OC3CCCC3)c3c(-c4ccc5nc(C)oc5c4)c[nH]c3n2)c(OC)c1 , which is 22.2

Kindly note the recorded viability, T/C for Nc1ccccc1NC(=O)c1ccc(CNC(=O)OCc2cccnc2)cc1 + CNC(=O)c1ccc(Nc2nc(OC3CCCC3)c3c(-c4ccc5nc(C)oc5c4)c[nH]c3n2)c(OC)c1 , which is 21.7

Kindly note the recorded viability, T/C for CCN1CCN(Cc2ccc(Nc3ncc(F)c(-c4cc(F)c5nc(C)n(C(C)C)c5c4)n3)nc2)CC1 + CNC(=O)c1ccc(Nc2nc(OC3CCCC3)c3c(-c4ccc5nc(C)oc5c4)c[nH]c3n2)c(OC)c1 , which is 18.9

Kindly note the recorded viability, T/C for CCc1c2c(nc3ccc(O)cc13)-c1cc3c(c(=O)n1C2)COC(=O)[C@]3(O)CC + CNC(=O)c1ccc(Nc2nc(OC3CCCC3)c3c(-c4ccc5nc(C)oc5c4)c[nH]c3n2)c(OC)c1 , which is 1.68

Kindly note the recorded viability, T/C for C#Cc1c(F)ccc2cc(O)cc(-c3ncc4c(N5CC6CCC(C5)N6)nc(OCC56CCCN5CC(F)C6)nc4c3F)c12 (stereo not given) + CNC(=O)c1ccc(Nc2nc(OC3CCCC3)c3c(-c4ccc5nc(C)oc5c4)c[nH]c3n2)c(OC)c1 , which is 2.47

Kindly note the recorded viability, T/C for CC(CO)NC(=O)c1cc(-c2ccc(Cl)cc2)nn(-c2cnn(C)c2)c1=O (stereo not given) + CN1CCN(c2cc(C(=O)Nc3cc4cc(-c5cnn(C)c5)ccc4cn3)ccn2)CC1 , which is 0.42

Kindly note the recorded viability, T/C for COc1cccc2c1C(=O)c1c(O)c3c(c(O)c1C2=O)CC(O)(C(=O)CO)CC3OC1CC(N)C(O)C(C)O1 (stereo not given) + CN1CCN(c2cc(C(=O)Nc3cc4cc(-c5cnn(C)c5)ccc4cn3)ccn2)CC1 , which is 1.02

Kindly note the recorded viability, T/C for Nc1ccccc1NC(=O)c1ccc(CNC(=O)OCc2cccnc2)cc1 + CN1CCN(c2cc(C(=O)Nc3cc4cc(-c5cnn(C)c5)ccc4cn3)ccn2)CC1 , which is 0.9

Kindly note the recorded viability, T/C for CC(=O)O[C@H]1C(=O)[C@@]2(C)[C@H]([C@H](OC(=O)c3ccccc3)[C@]3(O)C[C@H](OC(=O)[C@H](O)[C@@H](NC(=O)c4ccccc4)c4ccccc4)C(C)=C1C3(C)C)[C@]1(OC(C)=O)CO[C@@H]1C[C@@H]2O + CNC(=O)c1ccc(Nc2nc(OC3CCCC3)c3c(-c4ccc5nc(C)oc5c4)c[nH]c3n2)c(OC)c1 , which is 27.5

Where these numbers come from: PubChem BioAssay AID2060616
